# ASSAY_INFO: Retardation factor, Rf value of the compound using BuOH-AcOH-H20 at 4:1:1 ratio by ninhydrin
# Assay type: physicochemical
MEASURED_QUANTITY: Rf

| COMPOUND | Rf |
| --- | --- |
| CC(C)C[C@H](NC(=O)[C@@H](O)[C@H](N)CC(C)C)C(=O)O | 0.49 |
| CC(C)C[C@H](NC(=O)[C@@H](O)[C@H](N)CC1CCCCC1)C(=O)O | 0.47 |
| N[C@H](Cc1ccccc1)[C@H](O)C(=O)N[C@@H](CCC(=O)O)C(=O)O | 0.27 |

[1] CC(C)C[C@@H](NC(=O)[C@@H](O)[C@H](N)Cc1ccccc1)C(=O)O
[2] C[C@H](NC(=O)[C@@H](O)[C@H](N)Cc1ccccc1)C(=O)O
Which gives the smaller Rf number: 1 or 2 ? Bench note: the answer is the label of the chosen record.
2
